- Tested on: 762968-020-R-J2-PDC spheroids viability;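 note: spheroids exposed to drug for 7 days before readout; 100% = DMSO vehicle control wells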
- PROCEDURE_TEXT: Anticancer human tumor 762968-020-R-J2-PDC patient-derived colon carcinoma cell line growth inhibition [TAK]
- STATED_CONDITIONS: second compound 9.49 µM; first compound 0.00316 µM; active compounds read low; spheroids with HUVEC and MSC
Each entry below carries its reported viability, T/C.
EXPERIMENTAL_ENDPOINT: viability, T/C (%)

* CC(C)CC(NC(=O)C(Cc1ccccc1)NC(=O)c1cnccn1)B(O)O (stereo not given) + CC(C)NCC(C(=O)N1CCN(c2ncnc3c2C(C)CC3O)CC1)c1ccc(Cl)cc1 | 98.9
* COc1c(OCCCN2CCOCC2)ccc2c3n(c(=NC(=O)c4cnc(N)nc4)nc12)CCN3 + CC(C)NCC(C(=O)N1CCN(c2ncnc3c2C(C)CC3O)CC1)c1ccc(Cl)cc1 | 102
* CC(C)CC(NC(=O)CNC(=O)c1cc(Cl)ccc1Cl)B1OC(=O)CC(CC(=O)O)(C(=O)O)O1 (stereo not given) + CC(C)NCC(C(=O)N1CCN(c2ncnc3c2C(C)CC3O)CC1)c1ccc(Cl)cc1 | 102
* CC(C)n1nc(-c2ccc3oc(N)nc3c2)c2c(N)ncnc21 + CC(C)NCC(C(=O)N1CCN(c2ncnc3c2C(C)CC3O)CC1)c1ccc(Cl)cc1 | 98.3
* COC1CC2CCC(C)C(O)(O2)C(=O)C(=O)N2CCCCC2C(=O)OC(C(C)CC2CCC(OCCO)C(OC)C2)CC(=O)C(C)C=C(C)C(O)C(OC)C(=O)C(C)CC(C)C=CC=CC=C1C (stereo not given) + CC(C)NCC(C(=O)N1CCN(c2ncnc3c2C(C)CC3O)CC1)c1ccc(Cl)cc1 | 95.5
